System: RXF 393 renal
Assay Text: NCI tumour cell line growth inhibition, 48 h; in the data active means GI50 below about 0.43 µM; inactive means the rest
// allowed return values: 1 (yes) for active, 0 (no) for inactive

Compound	Discrete Label
O=C(c1ccccc1)c1ccc(O)c2ncccc12	0 (no)
CCOC(=O)Nc1ccc(C(=O)/C=C/c2ccccc2)cc1	0 (no)
O=C1Nc2ccc(CN3CCOC3=O)cc2/C1=C/c1cc(CN2CCOCC2)c[nH]1	0 (no)
CC(C)c1ccc(/C=N/N=C(N)N)cc1	0 (no)
Cc1ccc(N(/C=C/C(=O)C(F)(F)F)CC(=O)c2ccc(Cl)c(Cl)c2)cc1	0 (no)
O=C(O)c1cc2cc(O)ccc2[nH]1	0 (no)
CNC12C3C4C1C1C2C3C41C(=O)N[C@H](C(=O)N(C)[C@H](C[C@@H](OC(C)=O)c1nc(C(=O)N[C@@H](Cc2ccccc2)C[C@H](C)C(=O)OC)cs1)C(C)C)C1CC1 (stereo partly drawn)	1 (yes)

// next entry
Q: # lookup: test call for N=C1N=C(N)S/C1=C\c1ccc2ncccc2c1
Ans: 0 (no)
